Value source: patent US11773078B2

biological target: Furin (108-574-Tev-Flag-His) enzyme (Homo sapiens, UniProt P09958); construct: Furin (108-574-Tev-Flag-His) enzyme was expressed and purified from CHO cells; TEV cleavage site (C); FLAG (C); His (C); made in house; host or cells: CHO cells; experiment: Furin enzyme assay; type: biochemical
Sequence (P09958 108-574): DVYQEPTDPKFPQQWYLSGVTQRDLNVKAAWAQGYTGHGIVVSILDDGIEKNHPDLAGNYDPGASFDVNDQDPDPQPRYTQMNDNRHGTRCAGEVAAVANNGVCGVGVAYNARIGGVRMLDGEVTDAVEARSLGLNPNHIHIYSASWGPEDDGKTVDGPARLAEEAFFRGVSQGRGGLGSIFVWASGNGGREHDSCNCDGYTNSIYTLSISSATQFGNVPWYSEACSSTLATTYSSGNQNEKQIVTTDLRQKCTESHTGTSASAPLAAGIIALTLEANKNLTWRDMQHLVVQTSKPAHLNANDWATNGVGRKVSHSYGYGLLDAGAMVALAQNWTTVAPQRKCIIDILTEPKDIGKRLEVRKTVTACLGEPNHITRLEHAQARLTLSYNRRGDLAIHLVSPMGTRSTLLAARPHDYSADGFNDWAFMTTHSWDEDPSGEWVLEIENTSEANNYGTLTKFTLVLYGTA
Structures can show the parent of a compound that is named as a salt.

{"columns": ["molecule", "furin enzyme pIC50"],
 "data": [
  ["CN1CCN(c2ncc(Nc3cc(CN4CCC(CC(=O)O)CC4)cc(-c4cc(Cl)cc(Cl)c4)n3)cn2)CC1 [Example 332, hydrochloride]", 8.3],
  ["CS(=O)(=O)CCCN1CCN(c2ncc(Oc3cc(CN4CCC(CCC(=O)O)CC4)cc(-c4cc(Cl)cc(Cl)c4)n3)cn2)CC1 [Example 272]", 9.8],
  ["COC1CN(C)CCN(c2ncc(Oc3cc(CN4CCC(CC(=O)O)CC4)cc(-c4cc(Cl)cc(Cl)c4)n3)cn2)C1 (stereo not drawn) [Example 144]", 8.5]
]}
